Test system: A2780 cells
Experiment Notes: Cellular platinum accumulation/distribution by ICP-MS
Format: cell-based, human
Assay Context: A2780, 24 h, 0.35 µM
Assignment: determine reported Platinum in cytosol for the given compounds.
Give bare numbers, in pg Pt/µg protein.

CC(=O)[O][Pt]([NH2])([NH2])([Cl])([Cl])[O]C(C)=O [Pt(IV)diAc, cis, cis, trans-[Pt(IV)(NH3)2Cl2(Ac)2]]: 3.0

Your task in this section: give Platinum in cytosol for each listed record.
1. CCCCCCCC(=O)[O][Pt]([NH2])([NH2])([Cl])([Cl])[O]C(C)=O [Pt(IV)AcOA, cis, cis, trans-[Pt(IV)(NH3)2Cl2AcOA]]
2. N.N.[Cl][Pt][Cl] [cisplatin, reference compound]

1. 28
2. 5.5

Which Platinum in cytosol value belongs to CCCCCCCC(=O)[O][Pt]([NH2])([NH2])([Cl])([Cl])[O]C(=O)CCCCCCC [Pt(IV)diOA, cis, cis, trans-[Pt(IV)(NH3)2Cl2(OA)2]] ?
138

* * *

Assignment: determine reported Total cellular platinum accumulation for the given molecules.
System: A2780 cells
Experiment Notes: Cellular platinum accumulation/distribution by ICP-MS
Type: cell-based, human
Assay Context: A2780, 24 h exposure, 0.35 µM
Give bare numbers, in ng Pt/10^6 cells.

CC(=O)[O][Pt]([NH2])([NH2])([Cl])([Cl])[O]C(C)=O [Pt(IV)diAc, cis, cis, trans-[Pt(IV)(NH3)2Cl2(Ac)2]]: 0.45
N.N.[Cl][Pt][Cl] [cisplatin, reference compound]: 0.8
CCCCCCCC(=O)[O][Pt]([NH2])([NH2])([Cl])([Cl])[O]C(C)=O [Pt(IV)AcOA, cis, cis, trans-[Pt(IV)(NH3)2Cl2AcOA]]: 4.0

Let us move to another entry and its Total cellular platinum accumulation.
Which Total cellular platinum accumulation value belongs to CCCCCCCC(=O)[O][Pt]([NH2])([NH2])([Cl])([Cl])[O]C(=O)CCCCCCC [Pt(IV)diOA, cis, cis, trans-[Pt(IV)(NH3)2Cl2(OA)2]] ?
12.9

* * *

Assignment: determine reported Platinum in nucleus for the given compounds.
System: HCT-116 cells
Experiment Notes: Cellular platinum accumulation/distribution by ICP-MS
Type: cell-based, human
Assay Context: HCT-116, 24 h, 0.35 µM
One number for each entry, in pg Pt/µg protein.

CC(=O)[O][Pt]([NH2])([NH2])([Cl])([Cl])[O]C(C)=O [Pt(IV)diAc, cis, cis, trans-[Pt(IV)(NH3)2Cl2(Ac)2]]: 4.6
CCCCCCCC(=O)[O][Pt]([NH2])([NH2])([Cl])([Cl])[O]C(=O)CCCCCCC [Pt(IV)diOA, cis, cis, trans-[Pt(IV)(NH3)2Cl2(OA)2]]: 189
CCCCCCCC(=O)[O][Pt]([NH2])([NH2])([Cl])([Cl])[O]C(C)=O [Pt(IV)AcOA, cis, cis, trans-[Pt(IV)(NH3)2Cl2AcOA]]: 55

Which Platinum in nucleus value belongs to N.N.[Cl][Pt][Cl] [cisplatin, reference compound] ?
4.1

* * *

Tested on: PNT1a
Experiment Notes: MTT cytotoxicity, 72 h
Assay type: cell-based
Assay Context: platinum complexes
Readout: IC50 (nM)
Answers are plain numbers, in nM.

Your task in this section: give IC50 for each listed record.
1. CC(=O)[O][Pt]([NH2])([NH2])([Cl])([Cl])[O]C(C)=O [Pt(IV)diAc, cis, cis, trans-[Pt(IV)(NH3)2Cl2(Ac)2]]
2. CCCCCCCC(=O)[O][Pt]([NH2])([NH2])([Cl])([Cl])[O]C(=O)CCCCCCC [Pt(IV)diOA, cis, cis, trans-[Pt(IV)(NH3)2Cl2(OA)2]]

1: 2480; 2: 22

Your task in this section: give IC50 for each listed record.
1. CCCCCCCC(=O)[O][Pt]([NH2])([NH2])([Cl])([Cl])[O]C(C)=O [Pt(IV)AcOA, cis, cis, trans-[Pt(IV)(NH3)2Cl2AcOA]]
2. N.N.[Cl][Pt][Cl] [cisplatin, reference compound]

1. 150
2. 2500
